tested on: COLO 205 colon; test: NCI-60 one-dose screen, 48 h (100 = growth as untreated, 0 = no growth, -100 = all killed); conditions: 10 µM
This is part of a sample that, as a whole, favours compounds with a hit. Of some 83,000 tested, about 20% had one in any assay. Calls of active or inactive are those of the source. How the source made its calls: active means growth percent below 10; inactive means the rest.
measured_endpoint: growth

[
  {
    "compound": "O=C(CSc1nnc(-c2c[nH]c3ccccc23)n1-c1ccccc1)c1ccc(Cl)cc1",
    "measured_on": "COLO 205 colon",
    "measured_endpoint": "growth",
    "meas_value": "42.6% (inactive)"
  },
  {
    "compound": "O=c1c2ccccc2nc(COc2ccccc2)n1/N=C/c1ccc(N2CCCC2)cc1",
    "measured_on": "COLO 205 colon",
    "measured_endpoint": "growth",
    "meas_value": "142% (inactive)"
  },
  {
    "compound": "Cc1ccc(-c2cc(C(=O)N=Nc3c(O)[nH]c4ccccc34)c3ccccc3n2)cc1",
    "measured_on": "COLO 205 colon",
    "measured_endpoint": "growth",
    "meas_value": "-5.04% (active)"
  },
  {
    "compound": "Cc1ccn2c(C(=O)c3ccccc3)cc(-c3cc(-c4ccc(N(C)C)cc4)c(C#N)c(N)n3)c2c1",
    "measured_on": "COLO 205 colon",
    "measured_endpoint": "growth",
    "meas_value": "66.2% (inactive)"
  },
  {
    "compound": "O=C(NO)c1ccc(Cn2ccc3c(Nc4ccccc4)ncnc32)cc1",
    "measured_on": "COLO 205 colon",
    "measured_endpoint": "growth",
    "meas_value": "-84.9% (active)"
  },
  {
    "compound": "COc1ccc(C(=O)Nc2ccc(-c3ccc4c(c3)NC(=O)/C4=C\\c3ccc[nH]3)cc2)cc1",
    "measured_on": "COLO 205 colon",
    "measured_endpoint": "growth",
    "meas_value": "48.1% (inactive)"
  },
  {
    "compound": "O=C(CNc1nc(-c2ccccc2)cs1)Nc1ccc([N+](=O)[O-])cc1",
    "measured_on": "COLO 205 colon",
    "measured_endpoint": "growth",
    "meas_value": "-83.3% (active)"
  },
  {
    "compound": "COc1ccc(-c2nc(Nc3ccccc3S(N)(=O)=O)c3ccccc3n2)cc1",
    "measured_on": "COLO 205 colon",
    "measured_endpoint": "growth",
    "meas_value": "75.9% (inactive)"
  },
  {
    "compound": "Cc1ccc(-c2nc3ccc(C(=O)N=Nc4c(O)[nH]c5ccc(Cl)cc45)cc3[nH]2)cc1",
    "measured_on": "COLO 205 colon",
    "measured_endpoint": "growth",
    "meas_value": "3.66% (active)"
  },
  {
    "compound": "Cc1ccc(/C=C/C(=O)c2ccc(NC(=O)CSc3nnc(-c4c[nH]c5ccccc45)n3-c3ccccc3)cc2)c(C)c1",
    "measured_on": "COLO 205 colon",
    "measured_endpoint": "growth",
    "meas_value": "70.5% (inactive)"
  },
  {
    "compound": "COc1cc2oc(-c3cccc(C(=O)Nc4ccc(Cl)cc4)c3)cc(=O)c2c(OCCNC(=O)CNC(=O)OC(C)(C)C)c1OC",
    "measured_on": "COLO 205 colon",
    "measured_endpoint": "growth",
    "meas_value": "56.8% (inactive)"
  },
  {
    "compound": "NS(=O)(=O)c1ccc(NC(=O)CSc2ccc(-c3ccccc3)nn2)c(Br)c1",
    "measured_on": "COLO 205 colon",
    "measured_endpoint": "growth",
    "meas_value": "137% (inactive)"
  },
  {
    "compound": "NS(=O)(=O)c1ccc(N=Nc2c(O)n(CC(=O)Nc3ccccc3Br)c3ccccc23)cc1",
    "measured_on": "COLO 205 colon",
    "measured_endpoint": "growth",
    "meas_value": "5.92% (active)"
  },
  {
    "compound": "COC(=O)C(Cc1ccc(O)c(O)c1)NC(=O)C(CSC/C=C(\\C)CCCC(C)CCCC(C)CCCC(C)C)NC(C)=O (centres undefined)",
    "measured_on": "COLO 205 colon",
    "measured_endpoint": "growth",
    "meas_value": "3.84% (active)"
  },
  {
    "compound": "O=C1CCC(N2Cc3c(NCc4ccc(-c5ccccc5)cc4)cccc3C2=O)C(=O)N1 (centres undefined)",
    "measured_on": "COLO 205 colon",
    "measured_endpoint": "growth",
    "meas_value": "82% (inactive)"
  },
  {
    "compound": "Brc1ccc(/C=N/Nc2ncnc3sc4c(c23)CCN(Cc2ccccc2)C4)cc1",
    "measured_on": "COLO 205 colon",
    "measured_endpoint": "growth",
    "meas_value": "34.8% (inactive)"
  },
  {
    "compound": "CCC(C)S(=O)(=O)c1oc(-c2ccc(C)cc2)nc1S(=O)(=O)c1ccccc1 (centres undefined)",
    "measured_on": "COLO 205 colon",
    "measured_endpoint": "growth",
    "meas_value": "-85.5% (active)"
  },
  {
    "compound": "O=S(=O)(Nc1ncccn1)c1ccc(-n2c(-c3ccc(Br)cc3)nc(-c3ccccc3)c2-c2ccccc2)cc1",
    "measured_on": "COLO 205 colon",
    "measured_endpoint": "growth",
    "meas_value": "124% (inactive)"
  },
  {
    "compound": "Nc1nnc(-c2c[nH]c3ccc(F)cc23)c(-c2c[nH]c3ncccc23)n1",
    "measured_on": "COLO 205 colon",
    "measured_endpoint": "growth",
    "meas_value": "71.8% (inactive)"
  }
]
